tested_on: T1, EsCas13d, nuclease-dead (Eubacterium siraeum, UniProt B0MS50, R295A;H300A;R849A;H854A)
T1 sequence: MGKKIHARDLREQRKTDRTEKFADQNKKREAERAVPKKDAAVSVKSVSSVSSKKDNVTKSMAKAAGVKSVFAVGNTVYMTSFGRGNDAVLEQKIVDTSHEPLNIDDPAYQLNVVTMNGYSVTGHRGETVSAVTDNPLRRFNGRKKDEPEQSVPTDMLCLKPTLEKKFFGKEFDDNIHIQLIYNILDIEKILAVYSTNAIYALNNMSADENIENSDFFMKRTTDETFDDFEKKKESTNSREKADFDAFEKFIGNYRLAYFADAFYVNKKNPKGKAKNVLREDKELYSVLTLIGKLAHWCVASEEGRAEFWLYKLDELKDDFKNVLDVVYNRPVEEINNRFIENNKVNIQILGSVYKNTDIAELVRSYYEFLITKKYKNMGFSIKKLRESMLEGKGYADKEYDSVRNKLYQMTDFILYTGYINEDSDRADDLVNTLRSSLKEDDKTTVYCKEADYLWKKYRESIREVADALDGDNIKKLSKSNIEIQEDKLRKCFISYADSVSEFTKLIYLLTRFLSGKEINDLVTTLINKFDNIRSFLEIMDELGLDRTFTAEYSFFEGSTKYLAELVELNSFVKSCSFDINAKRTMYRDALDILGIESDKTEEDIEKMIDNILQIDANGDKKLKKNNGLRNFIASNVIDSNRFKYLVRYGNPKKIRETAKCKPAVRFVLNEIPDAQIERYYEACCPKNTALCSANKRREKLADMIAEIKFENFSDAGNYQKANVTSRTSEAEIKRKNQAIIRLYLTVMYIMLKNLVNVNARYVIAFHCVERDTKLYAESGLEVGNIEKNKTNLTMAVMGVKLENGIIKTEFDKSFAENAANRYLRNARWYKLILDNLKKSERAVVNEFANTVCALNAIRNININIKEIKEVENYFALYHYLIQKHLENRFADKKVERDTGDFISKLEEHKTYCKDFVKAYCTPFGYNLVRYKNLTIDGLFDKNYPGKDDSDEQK
method_description: crRNA (strand 1, pre-loaded); Mg2+; 40 mM Tris-HCl pH 7.5, 150 mM NaCl, 6 mM MgCl2, 1 mM DTT, 0.1% Tween-20, 0.2 mg/ml BSA; 25 C; 10 min per concentration, then washed
measurement_setup: tags: His6-TwinStrep-SUMO cleaved; N-terminal SNAP kept (SNAP-Surface 488); label: 3' end held by stalled T7 RNA polymerase
measurement_label: Kd (nM)

>>> recorded_result("target 1 MT 5'PFS GUG 3'PFS ACU (mixed) RNA 1: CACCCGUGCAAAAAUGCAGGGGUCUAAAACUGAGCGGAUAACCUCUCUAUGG RNA 2: GGGAAUGGAUCCACAUCUACGAAUUCGUGCCAUAGAGAGGUUAUCCGCUCAACUAGAUCGGAAGAGCACACGU")
11.5
>>> recorded_result("target 2 MT 5'PFS GUG 3'PFS ACG (mixed) RNA 1: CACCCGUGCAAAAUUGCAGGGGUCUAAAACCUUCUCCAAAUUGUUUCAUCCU RNA 2: GGGAAUGGAUCCACAUCUACGAAUUCGUGAGGAUGAAACAAUUUGGAGAAGACGAGAUCGGAAGAGCACACGU")
13.1
>>> recorded_result("target 1 MT 5'PFS GAA 3'PFS UGA (mixed) RNA 1: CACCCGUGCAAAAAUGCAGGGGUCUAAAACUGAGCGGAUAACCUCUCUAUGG RNA 2: GGGAAUGGAUCCACAUCUACGAAUUCGAACCAUAGAGAGGUUAUCCGCUCAUGAAGAUCGGAAGAGCACACGU")
30.5
>>> recorded_result("target 1 insG 3' of 11,insC 3' of 1 (mixed) RNA 1: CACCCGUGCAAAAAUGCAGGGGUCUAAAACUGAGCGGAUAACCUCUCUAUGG RNA 2: GGGAAUGGAUCCACAUCUACGAAUUCGUACCAUAGAGAGGUGUAUCCGCUCACCCGAGAUCGGAAGAGCACACGU")
35
>>> recorded_result("target 1 del9,del13 (mixed) RNA 1: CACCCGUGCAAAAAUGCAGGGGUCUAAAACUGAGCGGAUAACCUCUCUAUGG RNA 2: GGGAAUGGAUCCACAUCUACGAAUUCGUACCAUAGAGAGUUUCCGCUCACCGAGAUCGGAAGAGCACACGU")
21.3
>>> recorded_result("target 3 G4C,U7G (mixed) RNA 1: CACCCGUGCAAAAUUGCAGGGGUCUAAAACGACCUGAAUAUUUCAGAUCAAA RNA 2: GGGAAUGGAUCCACAUCUACGAAUUCGUUUUUGAUCUGAAAUAUGCACGUCUGCAGAUCGGAAGAGCACACGU")
44.1
>>> recorded_result("target 1 insA 3' of 12,insG 3' of 10 (mixed) RNA 1: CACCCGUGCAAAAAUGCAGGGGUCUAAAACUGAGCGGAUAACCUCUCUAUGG RNA 2: GGGAAUGGAUCCACAUCUACGAAUUCGUACCAUAGAGAGGAUUGAUCCGCUCACCGAGAUCGGAAGAGCACACGU")
29.2
>>> recorded_result("target 2 MT 5'PFS GUC 3'PFS CAU (mixed) RNA 1: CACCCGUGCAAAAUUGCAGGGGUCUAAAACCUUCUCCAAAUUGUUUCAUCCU RNA 2: GGGAAUGGAUCCACAUCUACGAAUUCGUCAGGAUGAAACAAUUUGGAGAAGCAUAGAUCGGAAGAGCACACGU")
10.3
>>> recorded_result("target 3 insU 3' of 4,insU 3' of 1 (mixed) RNA 1: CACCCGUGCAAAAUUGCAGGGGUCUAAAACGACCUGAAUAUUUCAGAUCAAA RNA 2: GGGAAUGGAUCCACAUCUACGAAUUCGUUUUUGAUCUGAAAUAUUCAGUGUCUUGCAGAUCGGAAGAGCACACGU")
37
>>> recorded_result("target 1 insG 3' of 22,insG 3' of 9 (mixed) RNA 1: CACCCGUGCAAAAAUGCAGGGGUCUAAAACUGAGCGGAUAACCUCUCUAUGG RNA 2: GGGAAUGGAUCCACAUCUACGAAUUCGUACGCAUAGAGAGGUUAGUCCGCUCACCGAGAUCGGAAGAGCACACGU")
28.2
>>> recorded_result("target 1 MT 5'PFS UGU 3'PFS CCG (mixed) RNA 1: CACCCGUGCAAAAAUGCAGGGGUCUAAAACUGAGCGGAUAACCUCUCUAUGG RNA 2: GGGAAUGGAUCCACAUCUACGAAUUCUGUCCAUAGAGAGGUUAUCCGCUCACCGAGAUCGGAAGAGCACACGU")
34.5
>>> recorded_result("target 1 MT 5'PFS GCG 3'PFS UCC (mixed) RNA 1: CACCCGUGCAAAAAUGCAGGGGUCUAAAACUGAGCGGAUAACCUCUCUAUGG RNA 2: GGGAAUGGAUCCACAUCUACGAAUUCGCGCCAUAGAGAGGUUAUCCGCUCAUCCAGAUCGGAAGAGCACACGU")
19
>>> recorded_result("target 2 MT 5'PFS CGG 3'PFS AAG (mixed) RNA 1: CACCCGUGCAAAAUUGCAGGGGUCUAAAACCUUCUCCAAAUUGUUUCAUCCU RNA 2: GGGAAUGGAUCCACAUCUACGAAUUCCGGAGGAUGAAACAAUUUGGAGAAGAAGAGAUCGGAAGAGCACACGU")
4.4
>>> recorded_result("target 2 MT 5'PFS GAC 3'PFS CGG (mixed) RNA 1: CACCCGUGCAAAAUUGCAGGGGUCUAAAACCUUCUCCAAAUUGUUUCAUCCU RNA 2: GGGAAUGGAUCCACAUCUACGAAUUCGACAGGAUGAAACAAUUUGGAGAAGCGGAGAUCGGAAGAGCACACGU")
8.9
>>> recorded_result("target 1 MT 5'PFS GUU 3'PFS CGA (mixed) RNA 1: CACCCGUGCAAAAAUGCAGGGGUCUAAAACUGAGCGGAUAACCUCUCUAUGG RNA 2: GGGAAUGGAUCCACAUCUACGAAUUCGUUCCAUAGAGAGGUUAUCCGCUCACGAAGAUCGGAAGAGCACACGU")
19.7

The measured values listed here are drawn from paper PMC10786891.
